// Fusarium MIC records

{"Compound": "COc1ccc(-n2cc(-c3ccccc3)n(O)c2=S)cc1 [Compound 2]", "MIC, µg/mL": 1020}
{"Compound": "COc1ccc(-c2cn(-c3ccccc3)c(=S)n2O)cc1 [Compound 3]", "MIC, µg/mL": 512}
{"Compound": "On1c(-c2ccccc2)cn(-c2ccccc2)c1=S [Compound 1]", "MIC, µg/mL": 16}
